Experimental System: Pim2 kinase (Homo sapiens)
Sequence (Q9P1W9 whole entry): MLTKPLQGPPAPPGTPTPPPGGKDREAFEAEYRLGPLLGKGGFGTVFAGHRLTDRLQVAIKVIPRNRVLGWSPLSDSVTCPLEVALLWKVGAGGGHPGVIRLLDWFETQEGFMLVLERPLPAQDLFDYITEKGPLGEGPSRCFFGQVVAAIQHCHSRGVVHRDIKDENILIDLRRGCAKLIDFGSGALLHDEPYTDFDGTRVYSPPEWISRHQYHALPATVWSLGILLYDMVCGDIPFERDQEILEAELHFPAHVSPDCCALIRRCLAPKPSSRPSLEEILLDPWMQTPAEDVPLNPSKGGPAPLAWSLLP
Measurement Notes: KinaseGlo Pim2 ATP depletion assay
Assay type: biochemical
Test Parameters: Table 4, 5 nM PIM2, 4 μM ATP, 10 μM BAD peptide
Property Label: IC50 (nM)

// below: answered compounds
[[record]]
compound = "C[C@H]1C[C@@H](c2ccncc2NC(=O)c2nc(-c3nc(F)c(F)cc3F)ccc2N)C[C@@H](O)[C@]1(C)O [Example 128]"
reported_value = 9.7

[[record]]
compound = "C[C@@H]1C[C@H](c2ccncc2NC(=O)c2ccc(F)c(-c3c(F)cccc3F)n2)C[C@H](O)[C@]1(O)CO [Example 60]"
reported_value = 1710

[[record]]
compound = "Cc1nn(C)cc1-c1ccc(N)c(C(=O)Nc2cnccc2[C@H]2C[C@@H](O)[C@](C)(O)[C@@H](C)C2)n1 [Example 140]"
reported_value = 130

[[record]]
compound = "Cc1c(-c2ccc(N)c(C(=O)Nc3cnccc3[C@H]3C[C@@H](O)[C@](C)(O)[C@@H](C)C3)n2)cnn1C [Example 143]"
reported_value = 120

[[record]]
compound = "C[C@H]1C[C@@H](c2ccncc2NC(=O)c2ccc(F)c(-c3ccc(C#N)cc3F)n2)C[C@@H](O)[C@]1(C)O [Example 54]"
reported_value = 67.9

[[record]]
compound = "C[C@H]1C[C@@H](c2ccncc2NC(=O)c2nc(-c3cccc(F)n3)ccc2N)C[C@@H](O)[C@]1(C)O [Example 135]"
reported_value = 14.2

[[record]]
compound = "C[C@H]1C[C@@H](c2ccncc2NC(=O)c2nc(-c3ncccc3F)c(F)cc2N)C[C@@H](O)C1(C)O (stereo in doubt) [Example 130]"
reported_value = 8.8

[[record]]
compound = "C[C@H]1C[C@@H](c2ccncc2NC(=O)c2nc(Br)ccc2N)C[C@@H](O)[C@]1(C)O [Example 38]"
reported_value = 24.3

[[record]]
compound = "COC(=O)c1ccc(F)c(-c2ccc(N)c(C(=O)Nc3cnccc3[C@H]3C[C@@H](O)[C@](C)(O)[C@@H](C)C3)n2)n1 [Example 137]"
reported_value = 5.4


(I) CC(=O)c1ccc(F)c(-c2ccc(N)c(C(=O)Nc3cnccc3[C@H]3C[C@@H](O)[C@](C)(O)[C@@H](C)C3)n2)n1 [Example 133]
(II) CC[C@]1(O)[C@H](O)C[C@H](c2ccncc2NC(=O)c2nc(-c3c(F)cccc3F)ncc2N)C[C@@H]1C [Example 34]
(III) CC(=O)OC[C@]1(O)[C@H](C)C[C@H](c2ccncc2NC(=O)c2ccc(F)c(-c3c(F)cccc3F)n2)C[C@@H]1O [Example 44]
(IV) C[C@@H]1C[C@H](c2ccncc2NC(=O)c2ccc(F)c(-c3c(F)cccc3F)n2)C[C@H](O)[C@]1(O)CF [Example 29]
Asked: Ordering criterion: IC50; begin with the maximum. Rank the items, then write their labels in that order.
Given back: III, IV, I, II

----------
Experimental System: Pim3 kinase (Homo sapiens, UniProt Q86V86)
Measurement Notes: KinaseGlo Pim3 ATP depletion assay
Format: biochemical
Test Parameters: Table 4, 40 μM ATP, 100 μM BAD peptide
pIC50: −log10 of the molar value.
Property Label: pIC50

[[record]]
molecule = "C[C@H]1C[C@@H](c2ccncc2NC(=O)c2nc(-c3ccnnc3)ccc2N)C[C@@H](O)[C@]1(C)O [Example 142]"
property_label = "pIC50"
reported_value = 6.61

[[record]]
molecule = "C[C@H]1C[C@@H](c2ccncc2NC(=O)c2nc(-c3ncccc3Cl)ccc2N)C[C@@H](O)[C@]1(C)O [Example 144]"
property_label = "pIC50"
reported_value = 8.64

[[record]]
molecule = "COC(=O)c1ccc(F)c(-c2ccc(N)c(C(=O)Nc3cnccc3[C@H]3C[C@@H](O)[C@](C)(O)[C@@H](C)C3)n2)n1 [Example 137]"
property_label = "pIC50"
reported_value = 8.64

[[record]]
molecule = "C[C@@H]1C[C@H](c2ccncc2NC(=O)c2ccc(F)c(-c3c(F)cccc3F)n2)C[C@H](O)[C@]1(O)CO [Example 60]"
property_label = "pIC50"
reported_value = 6.48

[[record]]
molecule = "Cc1nn(C)cc1-c1ccc(N)c(C(=O)Nc2cnccc2[C@H]2C[C@@H](O)[C@](C)(O)[C@@H](C)C2)n1 [Example 140]"
property_label = "pIC50"
reported_value = 7.82


(a) Cc1c(-c2ccc(N)c(C(=O)Nc3cnccc3[C@H]3C[C@@H](O)[C@](C)(O)[C@@H](C)C3)n2)cnn1C [Example 143]
(b) C[C@H]1C[C@@H](c2ccncc2NC(=O)c2nc(-c3c(F)cncc3F)ccc2N)C[C@@H](O)[C@]1(C)O [Example 141]
(c) C[C@@H]1C[C@H](c2ccncc2NC(=O)c2cccc(-c3c(F)cccc3F)n2)C[C@H](O)[C@@]1(C)O [Example 57]
Asked: Sequence the entries by pIC50, beginning with the highest number. I would appreciate it if you listed the labels in the requested order.
Given back: b, a, c

----------
Experimental System: Pim2 kinase (Homo sapiens)
Measurement Notes: Pim2 AlphaScreen assay (high ATP)
pIC50: −log10 of the molar value.
Property Label: pIC50

[[record]]
cpd_smiles = "COc1cc(F)c(-c2nc(C(=O)Nc3cnccc3[C@H]3C[C@@H](C)[C@](C)(O)[C@@H](N)C3)ccc2F)c(F)c1"
reported_value = 6.11


(A) Cc1cc(F)c(-c2nc(C(=O)Nc3cnccc3[C@H]3C[C@@H](N)[C@](C)(O)[C@@H](C)C3)c(N)cc2F)c(F)c1
(B) C[C@H]1C[C@@H](c2ccncc2NC(=O)c2ccc(F)c(-c3c(F)cccc3F)n2)C[C@@H](O)[C@@]1(O)CF
(C) C[C@@H]1C[C@H](c2ccncc2NC(=O)c2ccc(F)c(-c3c(F)cccc3F)n2)C[C@H](O)[C@]1(O)CF
Asked: // sort entries: pIC50, high to low Answer by listing the labels in the order asked for.
Given back: A, B, C
(A: 8.78, B: 7.30, C: 6.37)

(a) C[C@H]1C[C@@H](c2ccncc2NC(=O)c2nc(-c3c(F)cc(C4(O)CCOCC4)cc3F)sc2N)C[C@@H](N)[C@]1(C)O
(b) C[C@H]1C[C@@H](c2ccncc2NC(=O)c2ccc(F)c(-c3c(F)cc(CN4CCCC4=O)cc3F)n2)C[C@@H](O)[C@]1(C)O
Asked: When their pIC50 values are compared, which is larger, a or b ? To answer, give the label that identifies your chosen option.
Given back: a

----------
Experimental System: Pim3 kinase (Homo sapiens, UniProt Q86V86)
Measurement Notes: Pim3 AlphaScreen assay (high ATP)
Property Label: IC50 (nM)

(a) CC(=O)c1ccc(F)c(-c2ccc(N)c(C(=O)Nc3cnccc3[C@H]3C[C@@H](O)[C@](C)(O)[C@@H](C)C3)n2)n1
(b) C[C@H]1C[C@@H](c2ccncc2NC(=O)c2ccc(F)c(-c3c(F)cc(O[C@H]4CCCOC4)cc3F)n2)C[C@@H](N)[C@]1(C)O
(c) C[C@@H]1C[C@H](c2ccncc2NC(=O)c2csc(-c3c(F)cccc3F)n2)C[C@H](N)[C@@]1(C)O
Asked: Ranking request: IC50, max to min, items above. Your task in answering is to list the labels in the requested order.
Given back: c, a, b

----------
Experimental System: Pim3 kinase (Homo sapiens, UniProt Q86V86)
Measurement Notes: Pim3 AlphaScreen assay (high ATP)
Property Label: IC50 (nM)

(P) C[C@@H]1C[C@H](c2ccncc2NC(=O)c2ccc(F)c(-c3c(F)cc(OC4CCOCC4)cc3F)n2)C[C@H](O)[C@@]1(C)O
(Q) C[C@H]1C[C@@H](c2ccncc2NC(=O)c2ccc(F)c(-c3c(F)cc(O[C@@H]4CCCOC4)cc3F)n2)C[C@@H](N)[C@]1(C)O
(R) C[C@H]1C[C@@H](c2ccncc2NC(=O)c2nc(-c3c(F)cccc3F)c(F)cc2N)C[C@@H](O)[C@@]1(O)CF
Asked: Order the records by IC50, with each subsequent value no larger than the one before. Reply format: the labels, ordered as requested.
Given back: P, R, Q

----------
Experimental System: Pim1 kinase (Homo sapiens)
Sequence (P11309 whole entry): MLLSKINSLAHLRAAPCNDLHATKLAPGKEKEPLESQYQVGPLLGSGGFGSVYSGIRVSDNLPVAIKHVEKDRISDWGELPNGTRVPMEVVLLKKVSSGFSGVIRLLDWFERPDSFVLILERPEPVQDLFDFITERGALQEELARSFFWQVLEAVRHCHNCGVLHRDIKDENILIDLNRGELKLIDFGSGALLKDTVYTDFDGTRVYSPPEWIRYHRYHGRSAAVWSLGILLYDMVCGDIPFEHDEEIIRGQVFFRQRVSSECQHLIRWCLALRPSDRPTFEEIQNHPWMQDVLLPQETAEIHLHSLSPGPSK
Measurement Notes: Pim1 AlphaScreen assay (high ATP)
pIC50: −log10 of the molar value.
Property Label: pIC50

In the examples that follow, each entry is paired with its recorded pIC50.
[[record]]
compound = "C[C@H]1C[C@@H](c2ccncc2NC(=O)c2ccc(F)c(-c3c(F)cc(C(C)(C)O)cc3F)n2)C[C@@H](N)[C@]1(C)O"
experimental_system = "Pim1 kinase (Homo sapiens)"
property_label = "pIC50"
reported_value = 10.52

[[record]]
compound = "Cc1cc(F)c(-c2nc(C(=O)Nc3cnccc3[C@H]3C[C@@H](N)[C@](C)(O)[C@@H](C)C3)ccc2F)c(F)c1"
experimental_system = "Pim1 kinase (Homo sapiens)"
property_label = "pIC50"
reported_value = 10.15

[[record]]
compound = "C[C@H]1C[C@@H](c2ccncc2NC(=O)c2ccc(F)c(-c3c(F)cc(N4CCOCC4)cc3F)n2)C[C@@H](N)[C@]1(C)O"
experimental_system = "Pim1 kinase (Homo sapiens)"
property_label = "pIC50"
reported_value = 11.00


(I) C[C@@H]1C[C@H](c2ccncc2NC(=O)c2nc(-c3c(F)cccc3F)c(F)cc2N)C[C@H](O)[C@]1(O)CF
(II) C[C@@H]1C[C@H](c2ccncc2NC(=O)c2ccc(F)c(-c3c(F)cc(C4(O)CCCC4)cc3F)n2)C[C@H](O)[C@@]1(C)O
Asked: Choose between I and II : whose measured pIC50 value is numerically larger? Selection: enter the item's label.
Given back: II
(II: 8.17, I: 7.66)

(P) C[C@H]1C[C@@H](c2ccncc2NC(=O)c2nc(-c3cccc(F)n3)ccc2N)C[C@@H](O)[C@]1(C)O
(Q) C[C@H]1C[C@@H](c2ccncc2NC(=O)c2ccc(F)c(-c3c(F)cc(C4(O)CCC4)cc3F)n2)C[C@@H](O)[C@]1(C)O
(R) C[C@@H]1C[C@H](c2ccncc2NC(=O)c2ccc(F)c(-c3c(F)cc(CN4CCCC4=O)cc3F)n2)C[C@H](O)[C@@]1(C)O
(S) C[C@H]1C[C@@H](c2ccncc2NC(=O)c2ccc(F)c(-c3c(F)cc(C4(O)CCCC4)cc3F)n2)C[C@@H](N)[C@]1(C)O
(T) C[C@H]1C[C@@H](c2ccncc2NC(=O)c2ccc(F)c(-c3c(F)cc(CN4CCCC4=O)cc3F)n2)C[C@@H](O)[C@]1(C)O
Asked: rank_up(items): orders items by reported pIC50 in ascending numerical order. To answer, write out the labels according to the requested order.
Given back: P, R, T, Q, S

(1) C[C@H]1C[C@@H](c2ccncc2NC(=O)c2nc(-c3cccc(OCC(F)(F)F)n3)ccc2N)C[C@@H](O)[C@]1(C)O
(2) COCCOc1cc(F)c(-c2nc(C(=O)Nc3cnccc3[C@H]3C[C@@H](O)[C@](C)(O)[C@@H](C)C3)c(N)cc2F)c(F)c1
Asked: # return whichever of 1 and 2 has the smaller pIC50 Respond with the label that goes with your answer.
Given back: 1
